# Tested on: P. falciparum stage V gametocytes
# Set-up: BacTiter-Glo ATP luminescence viability of purified stage V gametocytes in 384-well plates, per cent inhibition versus DMSO
# Protocol conditions: 48 h, 5 µM; inhibitor
Out of some 13,000 compounds screened, about 3,200 (25%) showed an effect of 50% or more. The list shows a part of the results.
Measure name: % Inhibition (%)
Answer format: numeric, % implied, no suffix.

Look up and report measured % Inhibition for this entry: `Cc1[nH]c(C)c(-c2ccc(Oc3ccc(Cl)cc3Cl)cc2)c(=O)c1Br`
62.65

Look up and report measured % Inhibition for this entry: `CCC[C@@H]([C@@H](CC1CCCCC1)C(=O)N[C@@H](CCCCNS(C)(=O)=O)C(=O)Nc1nccs1)N(O)C=O`
41.43

Look up and report measured % Inhibition for this entry: COc1ccc(C2CC(c3ccccc3)=NN2C(=O)c2ccc(Br)o2)cc1 (stereo not drawn)
-10.79

From: paper PMC4552634
